Where do these numbers come from? They come from ChEMBL document CHEMBL2412965.

# Tested on: Salmonidae
# measurementDescription: Binding affinity to salmon testes duplex DNA assessed as thermal transition temperature at 15 uM preincubated for 5 mins at 90 degC followed by cooling at room temperature measured after 4 hrs by UV spectrophotometric analysis in presence of 150 mM K+ (reference value: 86.1 degC)
measureName: T (°C)

Log: Salmonidae, compound O=C1CNC(=O)c2coc(n2)-c2coc(n2)-c2cccc(c2)-c2cccc(c2)-c2nc(co2)-c2nc(co2)CN1 , T = 86.7

Log: Salmonidae, compound CC(C)[C@@H]1NC(=O)c2coc(n2)-c2coc(n2)-c2cccc(c2)-c2cccc(c2)-c2nc(co2)-c2nc(co2)CNC1=O , T = 86.2

Log: Salmonidae, compound NCC[C@@H]1NC(=O)c2coc(n2)-c2coc(n2)-c2cccc(c2)-c2cccc(c2)-c2nc(co2)-c2nc(co2)CNC1=O , T = 87.1

Log: Salmonidae, compound CN(C)CCc1cc2cc(c1)CNC(=O)c1coc(n1)-c1coc(n1)-c1cccc(n1)-c1nc(co1)-c1nc(co1)C(=O)NC2 , T = 86.8

Log: Salmonidae, compound CC(C)[C@@H]1NC(=O)c2coc(n2)-c2coc(n2)-c2coc(n2)C/C=C/c2coc(n2)-c2coc(n2)-c2coc1n2 , T = 86.2

Log: Salmonidae, compound O=C1N[C@@H](Cc2ccccc2)C(=O)NCc2coc(n2)-c2coc(n2)-c2cccc(c2)-c2cccc(c2)-c2nc(co2)-c2nc1co2 , T = 85.7

Log: Salmonidae, compound CC(C)(C)OC(=O)NCC[C@@H]1NC(=O)c2coc(n2)-c2coc(n2)-c2cccc(c2)-c2cccc(c2)-c2nc(co2)-c2nc(co2)CNC1=O , T = 86.5

Log: Salmonidae, compound CN(C)CC[C@@H]1NC(=O)c2coc(n2)-c2coc(n2)-c2cccc(c2)-c2cccc(c2)-c2nc(co2)-c2nc(co2)CNC1=O , T = 86.7

Log: Salmonidae, compound CC(C)[C@@H]1NC(=O)c2coc(n2)-c2coc(n2)-c2coc(n2)[C@H](CCN(C)C)NC(=O)c2coc(n2)-c2coc(n2)-c2coc1n2 , T = 86.7
